Target: alkaline phosphatase (Bos taurus, UniProt P19111)
Sequence (P19111 20-506 limits assumed): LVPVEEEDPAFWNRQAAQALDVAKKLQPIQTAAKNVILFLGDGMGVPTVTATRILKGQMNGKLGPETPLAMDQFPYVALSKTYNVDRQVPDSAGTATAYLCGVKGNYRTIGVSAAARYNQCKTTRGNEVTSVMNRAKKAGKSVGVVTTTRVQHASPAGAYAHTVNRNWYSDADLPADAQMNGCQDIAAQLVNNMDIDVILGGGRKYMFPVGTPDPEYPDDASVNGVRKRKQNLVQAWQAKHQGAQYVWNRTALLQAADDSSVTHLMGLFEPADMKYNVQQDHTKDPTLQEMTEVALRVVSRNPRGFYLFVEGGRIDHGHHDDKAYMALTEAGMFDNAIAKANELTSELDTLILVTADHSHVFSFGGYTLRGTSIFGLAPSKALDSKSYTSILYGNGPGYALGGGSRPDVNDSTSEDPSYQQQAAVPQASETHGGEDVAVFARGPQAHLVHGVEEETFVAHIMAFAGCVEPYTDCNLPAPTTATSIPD
Assay: Chemiluminescent signal-to-noise levels with enhancers (Example XXIV)
Format: biochemical
Conditions: EMERALD 1 1 mg/ml; 20 min
Please respond with reported chemiluminescent signal-to-noise level for every item in the list.
Give bare numbers.

Field: example entries. Status: answers known.
[[record]]
compound = "COC1(c2cccc(OP(=O)(O)O)c2)OOC12C1CC3CC2CC(O)(C3)C1 (single isomer, unassigned)"
property_name = "chemiluminescent signal-to-noise level"
recorded_value = 386

[[record]]
compound = "COC1(c2cccc(OP(=O)(O)O)c2)OOC12C1CC3CC2CC(Cl)(C3)C1 (stereo not shown)"
property_name = "chemiluminescent signal-to-noise level"
recorded_value = 964

[[record]]
compound = "COC1(c2cccc(OP(=O)(O)O)c2)OOC12C1CC3CC(C1)CC2C3 (stereo not shown) [AMPPD, reference compound]"
property_name = "chemiluminescent signal-to-noise level"
recorded_value = 282


# input for lookup
Asked: If you can, please state the reported chemiluminescent signal-to-noise level value of COC1(c2cccc(OP(=O)(O)O)c2)OOC12C1CC3CC2CC(Br)(C3)C1 (stereo not shown) .
Given back: 915
